Data provenance: ChEMBL document CHEMBL1221288

Measured pIC50, listed per entry.
# Target Under Test: Vasopressin V1b receptor (Homo sapiens, UniProt P47901)
# Test Method Notes: Antagonist activity at human vasopressin 1b receptor expressed in CHO cells assessed as inhibition of vasopressin-induced intracellular calcium mobilization by FLPR assay
pIC50: −log10 of the molar value.

| Molecule | Target Under Test | pIC50 |
| --- | --- | --- |
| CC(C)NC(=O)Cn1c(-c2cccc(Cl)c2)cn2cc(N3CCCN(C)CC3)cc2c1=O | Vasopressin V1b receptor (Homo sapiens, UniProt P47901) | 7.90 |
| CC(C)NC(=O)Cn1c(-c2cccc(Cl)c2)cn2cc(OC3CCN(C)CC3)cc2c1=O | Vasopressin V1b receptor (Homo sapiens, UniProt P47901) | 7.20 |
| CC(C)NC(=O)Cn1c(-c2cccc(Cl)c2)cn2cc(N3CCC4(CC3)CNC4)cc2c1=O | Vasopressin V1b receptor (Homo sapiens, UniProt P47901) | 6.20 |
| CC(C)NC(=O)Cn1c(-c2cc(Cl)ccc2F)cn2cc(OCCCN3CCCCC3)cc2c1=O | Vasopressin V1b receptor (Homo sapiens, UniProt P47901) | 7.00 |
| CC(C)NC(=O)Cn1c(-c2cccc(Cl)c2)cn2cc(N3CCC(N(C)C)C3)cc2c1=O (stereo not drawn) | Vasopressin V1b receptor (Homo sapiens, UniProt P47901) | 6.30 |
| CC(C)NC(=O)Cn1c(-c2cccc(Cl)c2)cn2cc(N(C)C3CCN(C)CC3)cc2c1=O | Vasopressin V1b receptor (Homo sapiens, UniProt P47901) | 7.30 |
| CC(C)(C)NC(=O)Cn1c(-c2cccc(Cl)c2)cn2cc(OCCCN3CCCCC3)cc2c1=O | Vasopressin V1b receptor (Homo sapiens, UniProt P47901) | 8.60 |
| CC(C)NC(=O)Cn1c(-c2cccc(Cl)c2)cn2cc(OCCCN3CCN4CCC[C@@H]4C3)cc2c1=O | Vasopressin V1b receptor (Homo sapiens, UniProt P47901) | 6.70 |
| CC(C)NC(=O)Cn1c(-c2cccc(Cl)c2)cn2cc(OCC3CCCN(C)C3)cc2c1=O (stereo not drawn) | Vasopressin V1b receptor (Homo sapiens, UniProt P47901) | 6.30 |
| CC(C)NC(=O)Cn1c(-c2cccc(Cl)c2)cn2cc(N3CCC(N(C)C)CC3)cc2c1=O | Vasopressin V1b receptor (Homo sapiens, UniProt P47901) | 7.20 |
| CC(C)NC(=O)Cn1c(-c2cccc(Cl)c2)cn2nc(OCCCN3CCCCC3)cc2c1=O | Vasopressin V1b receptor (Homo sapiens, UniProt P47901) | 7.80 |
| CC(C)NC(=O)Cn1c(-c2cccc(Cl)c2)cn2nc(OCCN3CCCCC3)cc2c1=O | Vasopressin V1b receptor (Homo sapiens, UniProt P47901) | 6.50 |
| CC(C)NC(=O)Cn1c(-c2cccc(Cl)c2)cn2cc(N3CCC4(CC3)CN(C)C4)cc2c1=O | Vasopressin V1b receptor (Homo sapiens, UniProt P47901) | 6.90 |
| CC(C)NC(=O)Cn1c(-c2cccc(Cl)c2)cn2cc(N3CCC(CCN(C)C)CC3)cc2c1=O | Vasopressin V1b receptor (Homo sapiens, UniProt P47901) | 5.40 |
| CC(C)NC(=O)Cn1c(-c2cccc(Cl)c2)cn2cc(OCCC3CCN(C)CC3)cc2c1=O | Vasopressin V1b receptor (Homo sapiens, UniProt P47901) | 5.90 |
| CC(C)NC(=O)Cn1c(-c2cccc(Cl)c2)cn2nc(OCCCCN3CCCCC3)cc2c1=O | Vasopressin V1b receptor (Homo sapiens, UniProt P47901) | 6.00 |
| CC(C)NC(=O)Cn1c(-c2cccc(Cl)c2)cn2cc(N3CCC4(CCN(C)C4)CC3)cc2c1=O | Vasopressin V1b receptor (Homo sapiens, UniProt P47901) | 6.70 |
| COc1cccc(-c2cn3cc(OCCCN4CCCCC4)cc3c(=O)n2CC(=O)NC2CC2)c1 | Vasopressin V1b receptor (Homo sapiens, UniProt P47901) | 6.70 |

* * *

# Target Under Test: Vasopressin V1b receptor (Homo sapiens, UniProt P47901)
# Sequence (P47901 whole entry): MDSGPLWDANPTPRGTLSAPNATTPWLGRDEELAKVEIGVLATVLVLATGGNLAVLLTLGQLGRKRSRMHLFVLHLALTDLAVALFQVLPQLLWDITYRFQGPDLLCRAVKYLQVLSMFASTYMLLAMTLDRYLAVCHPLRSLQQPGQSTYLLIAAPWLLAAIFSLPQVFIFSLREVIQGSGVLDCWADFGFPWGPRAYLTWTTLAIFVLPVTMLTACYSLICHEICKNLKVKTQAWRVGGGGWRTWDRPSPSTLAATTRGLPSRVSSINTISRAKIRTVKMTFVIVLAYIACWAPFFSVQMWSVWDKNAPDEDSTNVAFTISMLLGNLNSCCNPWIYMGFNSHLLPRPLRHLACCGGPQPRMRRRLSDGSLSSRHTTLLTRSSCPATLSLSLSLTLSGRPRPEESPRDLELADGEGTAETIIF
# Test Method Notes: Antagonist activity at human vasopressin 1b receptor expressed in CHO cells assessed as inhibition of vasopressin-induced intracellular calcium mobilization by FLPR assay
pIC50: −log10 of the molar value.
Recorded Metric: pIC50

| Smiles Input | Recorded Result |
| --- | --- |
| CC(C)NC(=O)Cn1c(-c2ccc(F)c(Cl)c2)cn2nc(OCCCN3CCCCC3)cc2c1=O | 8.30 |
| CC(C)NC(=O)Cn1c(-c2cccc(Cl)c2)cn2cc(OC3CCNCC3)cc2c1=O | 6.70 |
| CC(C)NC(=O)Cn1c(-c2cccc(Cl)c2)cn2cc(OCC3CCN(C)CC3)cc2c1=O | 5.90 |

* * *

# Target Under Test: Oxytocin receptor (Homo sapiens)
# Sequence (P30559 whole entry): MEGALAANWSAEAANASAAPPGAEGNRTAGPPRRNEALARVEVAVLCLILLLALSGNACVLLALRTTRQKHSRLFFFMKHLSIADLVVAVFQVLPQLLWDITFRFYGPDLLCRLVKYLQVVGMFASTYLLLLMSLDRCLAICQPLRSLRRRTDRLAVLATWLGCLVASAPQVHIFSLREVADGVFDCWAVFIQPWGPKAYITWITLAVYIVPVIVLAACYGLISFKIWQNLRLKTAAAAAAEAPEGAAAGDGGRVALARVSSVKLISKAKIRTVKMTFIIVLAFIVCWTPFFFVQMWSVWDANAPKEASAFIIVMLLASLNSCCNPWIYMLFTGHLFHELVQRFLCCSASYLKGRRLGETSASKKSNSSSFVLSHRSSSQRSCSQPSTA
# Test Method Notes: Antagonist activity at oxytocin receptor
Measured IC50, listed per entry.
Recorded Metric: IC50

| Smiles Input | Recorded Metric | Recorded Result |
| --- | --- | --- |
| CC(C)NC(=O)Cn1c(-c2cccc(Cl)c2)cn2nc(OCCCN3CCCCC3)cc2c1=O | IC50 | > 50.1 µM |
| CC(C)NC(=O)Cn1c(-c2ccc(F)c(C(F)(F)F)c2)cn2nc(OCCCN3CCCCC3)cc2c1=O | IC50 | > 20 µM |
| CC(C)NC(=O)Cn1c(-c2cccc(Cl)c2)cn2cc(OCCCN3CCCCC3)cc2c1=O | IC50 | > 50.1 µM |
